Values from patent US8716289B2

quantity: melting point

Worked cases, melting point given:
NC(=O)c1cc(COC(=O)NCCC2CCN(c3cccc(-c4ccc(F)cc4)n3)CC2)on1 [Compound 24]	172 to 174 °C
CNC(=O)c1cc(COC(=O)NCCC2CCN(c3cnc(-c4ccc(F)cc4)cn3)CC2)on1 [Compound 69]	181.5 to 183.5 °C

Look up melting point for the entries below, preserving their order.
1. CC(C)c1noc(COC(=O)NCCC2CCN(c3ccc(-c4ccc(F)cc4)cn3)CC2)n1 [Compound 7]
2. O=C(NCCC1CCN(c2ccc3cc(Cl)ccc3n2)CC1)OCc1csnn1 [Compound 18]

1: 96 to 98 °C; 2: 146 to 148 °C

Need melting point, item CNC(=O)c1cc(COC(=O)NCCC2(C)CCN(c3nccc(C(F)(F)F)n3)CC2)on1 [Compound 72]
160 to 162 °C
